test.system: panel of 255 wild-type kinases (Homo sapiens, UniProt Q9NZJ5)
Sequence (Q9NZJ5 30-1116): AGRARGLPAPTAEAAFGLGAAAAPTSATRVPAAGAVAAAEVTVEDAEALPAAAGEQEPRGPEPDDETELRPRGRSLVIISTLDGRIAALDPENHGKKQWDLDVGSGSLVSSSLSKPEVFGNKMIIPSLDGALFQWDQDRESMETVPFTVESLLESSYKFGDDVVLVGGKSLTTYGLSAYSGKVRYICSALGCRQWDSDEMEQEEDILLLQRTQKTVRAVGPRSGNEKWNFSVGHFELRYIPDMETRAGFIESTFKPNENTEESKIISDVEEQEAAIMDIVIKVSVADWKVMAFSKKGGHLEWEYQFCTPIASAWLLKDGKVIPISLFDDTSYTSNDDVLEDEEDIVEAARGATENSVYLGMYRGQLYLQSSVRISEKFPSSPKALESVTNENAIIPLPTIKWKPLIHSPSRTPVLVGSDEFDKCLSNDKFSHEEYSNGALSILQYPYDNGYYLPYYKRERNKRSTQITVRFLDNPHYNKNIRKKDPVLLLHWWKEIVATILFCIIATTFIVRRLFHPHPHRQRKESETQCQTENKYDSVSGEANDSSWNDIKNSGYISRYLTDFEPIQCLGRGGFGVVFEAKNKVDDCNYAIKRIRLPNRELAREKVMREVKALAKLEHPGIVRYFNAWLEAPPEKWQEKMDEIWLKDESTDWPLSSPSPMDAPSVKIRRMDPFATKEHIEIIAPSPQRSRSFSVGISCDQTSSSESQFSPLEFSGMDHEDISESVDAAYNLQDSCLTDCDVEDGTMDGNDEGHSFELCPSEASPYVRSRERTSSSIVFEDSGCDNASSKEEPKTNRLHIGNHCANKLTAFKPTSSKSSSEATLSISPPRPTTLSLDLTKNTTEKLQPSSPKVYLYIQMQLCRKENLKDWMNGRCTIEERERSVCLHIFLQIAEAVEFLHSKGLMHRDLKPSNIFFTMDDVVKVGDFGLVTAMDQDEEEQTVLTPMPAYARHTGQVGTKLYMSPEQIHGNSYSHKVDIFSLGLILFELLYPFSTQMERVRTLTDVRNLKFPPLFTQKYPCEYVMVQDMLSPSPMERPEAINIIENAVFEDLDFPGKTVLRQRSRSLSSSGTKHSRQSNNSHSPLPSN
assay.comment: Kinase panel profiling at 1 µmol/L (MSA or IMAP), percentage inhibition
Type: biochemical
run.parameters: kinase PEK; 1 µmol/L single concentration; read-out: %-inhibition at 1 µmol/L, PEK
quantity: inhibition at 1 µM

The compound listed as Cc1nc(NC(=O)N2CCC[C@H]2C(N)=O)sc1-c1ccnc(C(C)(C)C(F)(F)F)c1 shows inhibition at 1 µM equal to 10%

// inhibition at 1 µM lookup, compound = CCn1c(=O)c(-c2cc(NC(=O)Nc3ccccc3)c(F)cc2Br)cc2cnc(NC)cc21 , result: 9%

The compound listed as C[C@H]1Oc2cc(cnc2N)-c2c(nn(C)c2C#N)CN(C)C(=O)c2ccc(F)cc21 shows inhibition at 1 µM equal to -1.65%

Measured inhibition at 1 µM of C[C@H](Nc1ncnc2nc[nH]c12)c1cc2cccc(Cl)c2c(=O)n1-c1ccccc1 : 5.65%

inhibition at 1 µM measured on O=C(Nc1cnn2ccc(N3CCC[C@@H]3c3cc(F)ccc3F)nc12)N1CC[C@H](O)C1 = 4%

Recorded inhibition at 1 µM (compound Cn1cc(-c2cc3c(N4CCN(c5ncc([C@@](C)(N)c6ccc(F)cc6)cn5)CC4)ncnn3c2)cn1 ): 1.51%

Note to self: inhibition at 1 µM recorded for CN1CCN(c2ccc(C(=O)Nc3n[nH]c4ccc(Cc5cc(F)cc(F)c5)cc34)c(NC3CCOCC3)c2)CC1 was 0.561%

Kindly note the recorded inhibition at 1 µM for COC(=O)N[C@@H](C)CNc1nccc(-c2cn(C(C)C)nc2-c2cc(Cl)cc(NS(C)(=O)=O)c2F)n1 , which is 9%
